Target: HIV-1 protease (Human immunodeficiency virus type 1 group M subtype B)
Assay: inhibition constants against HIV-1 protease (method of Pennington et al.)
Type: biochemical
readout.label: Ki (nM)

>>> df
                                   compound  unit_label  qualifier_sign  readout_number
0  COc1ccc(S(=O)(=O)N(CC2CCCC2)C[C@@H](O)[C@H](Cc2ccccc2)NC(=O)OCC2COCO2)cc1 (stereo partly drawn) [Compound 2]          nM               =             0.3
1  CC(C)C[C@H](NC(=O)OC1COC2OCCCC12)[C@H](O)CN(CC1CCCCC1)S(=O)(=O)c1cccc(N)c1 (stereo partly drawn) [Compound 12]          nM               =             1.5
2  Nc1cccc(S(=O)(=O)N(CC2CCCC2)C[C@@H](O)[C@H](Cc2ccccc2)NC(=O)OC2COC3OCCCC23)c1 (single isomer, unassigned) [Compound 8]          nM               <             0.1
3  Nc1cccc(S(=O)(=O)N(CC2CCCC2)C[C@@H](O)[C@H](Cc2ccccc2)NC(=O)OC2COC3OCCCC23)c1 (single isomer, unassigned) [Compound 7]          nM               <             0.1
4  COc1ccc(S(=O)(=O)N(CC2CCCC2)C[C@@H](O)[C@H](Cc2ccccc2)NC(=O)OC2COCOC2)cc1 [Compound 1]          nM               <             0.1
5  CC(C)CN(C[C@@H](O)[C@H](Cc1ccccc1)NC(=O)OC1COCOC1)S(=O)(=O)c1ccc(N)cc1 [Compound 4]          nM               =             0.3

Reference for the values: patent US5691372A
